test system: BT-549; experiment: NCI tumour cell line growth inhibition, 48 h
The source made the active and inactive calls. Cut-off read from the data, not from the text of the source: active = GI50 up to about 1.1 µM and inactive = higher.
Pick one and only one: 1.0 = active, 0.0 = inactive

Some entries whose results are on file:
Call for entry "COc1ccc2c(c1)C(=O)[C@@](Nc1ccc(C=O)cc1)(OC)[C@@](OC)(c1ccc([N+](=O)[O-])cc1)O2" : 0.0

Hi, sorry to bother you, what did the test record for Cc1nn(C(=O)c2ccccc2O)c2c1C(c1ccc(O)cc1O)SC(=N)N2 (stereo not given) ? 0.0

Hey, what did the test say about "Cc1ccc(/N=N\c2c(O)c(S(=O)(=O)O)cc3cc(S(=O)(=O)O)ccc23)c(C)c1" ? 0.0

So what was the verdict on "CSc1nc(=O)cnn1C" in this test? 0.0

Status in this test for "CC(C)CNCCc1ccccn1" ? 0.0

Others:
Could you please tell me the result logged for CCC(O)CC1OC2(CCC1C)CC1OC(=O)/C=C\C(C)(O)C(O)C(C)C(O)C(OC3CC(OC)C(O)C(C)O3)C(O)C(C)(O)CCC/C=C/C3CC(C)COC3(O)CC(O2)C1C (stereo not given) in this assay? 0.0

Per the assay record, what outcome was assigned to "COc1cc2c(cc1OC)-c1cc3ccccc3c(=O)n1CC2" ? 0.0

I'd appreciate the recorded outcome for O=c1[nH]c(N/N=C\C(O)C(O)C(O)CO)nc2ccccc12 (stereo not given) from this test. 0.0

Recorded call for "CN(CCCNC(=O)c1cn(C)c2c1Cc1ccccc1-2)CCCNC(=O)c1cn(C)c2c1Cc1ccccc1-2" ? 0.0

# lookup: test call for "COc1ccc(-c2c(=O)[nH]n3c(=S)[nH]c(-c4ccccc4)nc23)cc1OC" 0.0

====

# key: entry, value: GI50
test system: NCI-H460; experiment: NCI tumour cell line growth inhibition, 48 h
Activity calls are given as the source filed them. No stated cut-off is given here; in the data, active = GI50 up to about 1.1 µM and inactive = higher.

Solved entries:
Look up GI50 with NCI-H460 for this molecule: "CCN(CC)CCNC(=O)c1ccccc1Nc1c(Cl)cccc1Cl" 4.39 µM (inactive)

For NCI-H460, provide GI50 of "Nc1ccccc1S(=O)(=O)N(CC(=O)O)c1ccccc1" please. > 100 µM (inactive)

Write down the reported GI50 of "NC1=C(N2CCOCC2)C(=O)NC2=N/C(=C\c3ccccc3)C(=O)N21" , test system: NCI-H460. > 100 µM (inactive)

Value wanted: GI50 (NCI-H460) of entry Cc1ccccc1N(CCC#N)C1=NN(C(=O)CC(=O)Nc2ccc(Cl)cc2)C(c2ccccc2)C1 (stereo not given) > 100 µM (inactive)

NCI-H460 / GI50 / "O=C1c2ccccc2C(=O)c2c1ccc1nc3c(nc21)-c1c2ccccc2cc2cccc-3c12" : value? 26.2 µM (inactive)

Continuing:
Param readout= GI50; system= NCI-H460; entry= "CCC(=O)O[C@H]1CC[C@H]2[C@@H]3CCC4=C/C(=N/OC(=O)c5cccc6c(=O)c7ccccc7[nH]c56)CC[C@]4(C)[C@H]3CC[C@]12C" ; returns value. 22.2 µM (inactive)

Observed GI50 on NCI-H460 for "O=C(CNc1nncs1)NO" , please. > 100 µM (inactive)

====

test system: K562; assay: NCI tumour cell line growth inhibition, 48 h
Calls of active or inactive are those of the source. Rule as the data show it: active = GI50 up to about 1.1 µM and inactive = higher.
Your reply should match one of these outcome classes. label 1 = active, label 0 = inactive

Previously resolved entries follow.
In this assay, the call recorded for COC1=CC(=O)C2C(C1=O)[C@@H]1c3ccccc3OC[C@H]21 (stereo not given in full) was what? label 0

Per the records of this test, what outcome belongs to "COc1ccc2c(c1)C(=O)[C@@](Nc1ccc(C=O)cc1)(OC)[C@@](OC)(c1ccc([N+](=O)[O-])cc1)O2" ? label 0

Field: outcome | Entry: "CCc1ccccc1NC(=O)C1=C(C)NC(C)=C(C(=O)Nc2ccccc2CC)C1c1ccc2c(c1)OCO2" label 0

Please state the recorded outcome for this compound: "C/C(=N\N=C(/S)N1CC2CCC(CC2)C1)c1cccc[n+]1[O-]" label 1

Identify the outcome logged in this assay for the compound shown: "CCN(CC)CCNC(=O)c1ccccc1Nc1c(Cl)cccc1Cl" label 0

# lookup: test call for "N#Cc1nc(/C=C/c2ccccc2)oc1N" label 0

New cases:
# lookup: test call for "CCc1cc2c(c3[nH]ccc13)[C@@H](C)C[C@H]2C" label 0

What was the test verdict on CCc1cccc(C(C)CC)c1NC(=O)CC1C(=O)Nc2ccccc2[S+]1[O-] (stereo not given) ? label 0

Any idea what this test logged for C[N+]12CCCCC1C(CN1C(=O)Cc3c4ccccc4c(c4ccccc34)CC1=O)CCC2 (stereo not given) ? label 0

I would be grateful if you could indicate the recorded call for O=C1C(C(c2ccc([N+](=O)[O-])cc2)N2CCOCC2)=C(O)C(c2ccccc2)N1c1ccccc1 (stereo not given) . label 0

====

Collected GI50 values appear next to each entry.
test system: CCRF-CEM; experiment: NCI tumour cell line growth inhibition, 48 h
The source made the active and inactive calls. Cut-off read from the data, not from the text of the source: active = GI50 up to about 1.1 µM and inactive = higher.

Use the examples below as a reference point.
Returns the measured GI50 for the input molecule. Input: "Cc1cc(N)c2cc(NC(=O)CCCCCCCCC(=O)Nc3ccc4nc(C)cc(N)c4c3)ccc2n1" 10.7 µM (inactive)

State the recorded GI50 for this entry: "CCc1nc2cc(/N=N/c3c(O)ccc4ccccc34)ccc2[nH]1" 3.47 µM (inactive)

Consider the molecule "C=C(C)[C@@H]1CCC2=C[C@H](C/C(C)=C\C3=CC(C)=C(O3)[C@H]1O)OC2=O" and give its measured GI50. > 100 µM (inactive)

Entry under review: "COc1ccc(-c2c(=O)[nH]n3c(=S)[nH]c(-c4ccccc4)nc23)cc1OC" . Reported GI50? 9.1 µM (inactive)

In the following, a different molecule is considered.
Endpoint output: GI50 of CN(C(=O)C12C3C4C1C1C2C3C41C(O)C(C)(C)C)C(C)(C)C (stereo not given) . Value? > 100 µM (inactive)

====

tested on: OVCAR-5; test: NCI tumour cell line growth inhibition, 48 h
Calls of active or inactive are those of the source. Rule as the data show it: active = GI50 up to about 1.1 µM and inactive = higher.
Answer with one of the outcomes given here: Yes for active, No for inactive

See these solved cases before continuing.
Any idea what this test logged for "Cc1cccc2c1C/C(=C\c1cccc(C)c1C(=O)O)C2=O" ? No

Per the records of this test, what outcome belongs to "C=Cc1cncc(C#N)c1CCc1c(C#N)cncc1C=C" ? No

Field: outcome | Entry: N#CC(C(=N/O)/C(=N/O)C(C#N)c1ccc(Cl)cc1)c1ccc(Cl)cc1 (stereo unspecified) No

Hi team, can someone confirm the assay call for Cc1ccccc1OC(C)C(=O)NN1C(=O)CSC1c1ccccc1 (stereo unspecified) ? No

Any idea what this test logged for Cc1ccc(C2NC(=O)c3ccccc3N2)c(C)c1 (stereo unspecified) ? No

For this compound, state the assay outcome: N#Cc1ccc(NC(=O)C(CC(=O)OCc2ccccc2)NC(=O)OCc2ccccc2)cc1 (stereo unspecified) No

Others:
Dear colleague, could you share the recorded outcome for "CN(C)C1(C#N)CCC2(CC1)OCCO2" when you have a moment? No

Record request — test call for "COc1ccc(C(=O)O)c2c(=O)c3cccnc3[nH]c12" No

Hi, sorry to bother you, what did the test record for "CC(=O)Nc1ccc(/N=N\c2c(O)c(S(=O)(=O)O)cc3cc(S(=O)(=O)O)ccc23)cc1" ? No

Call for entry "COc1ccc2c(C(=O)O)cc3ccccc3c2c1OC" : No

What was the test verdict on "O=C(O)CCCCn1cnc2c(S)ncnc21" ? No

Could you kindly confirm the outcome this assay logged for "CC(C)c1nc(Cl)nc(Cl)c1Cl" ? Yes

Field: outcome | Entry: "C=CCNC(=S)N/C=C(\C#N)C(N)=O" No

====

test system: RPMI-8226; assay: NCI tumour cell line growth inhibition, 48 h
Calls of active or inactive are those of the source. Cut-off read from the data, not from the text of the source: active = GI50 up to about 1.1 µM and inactive = higher.
Write down one outcome, taken from True for active, False for inactive

Worked examples, 4 molecules total:
// param item: CCC(O)CC1OC2(CCC1C)CC1OC(=O)/C=C\C(C)(O)C(O)C(C)C(O)C(OC3CC(OC)C(O)C(C)O3)C(O)C(C)(O)CCC/C=C/C3CC(C)COC3(O)CC(O2)C1C (stereo not drawn) ; yields the recorded call True

Which outcome did this test record for the molecule "COc1ccccc1/N=C1\SCCN1C(=S)Nc1ccc(S(=O)(=O)/N=C/N(C)C)cc1" ? False

Which outcome was assigned to "Cc1cc2nc3c(C#N)c(-c4ccccc4)cc(Nc4ccc(Cl)cc4)n3c2cc1C" in this test? False

What was the test verdict on "CC(=O)O[C@H]1C(=O)[C@@]2(C)[C@H]([C@H](OC(=O)c3ccccc3)[C@]3(O)C[C@H](OC(=O)[C@H](O)[C@@H](NC(=O)CC(C)C)c4ccccc4)C(C)=C1C3(C)C)[C@]1(OC(C)=O)CO[C@@H]1C[C@@H]2O" ? True

***
// outcome(item) with item = "CNC(=O)N1CCN(C(=O)NC)CCN(C(=O)NC)CC1" False

Answer briefly: the call reported for "Nc1cccc(OCc2nc(N)nc(N)c2-c2ccc(Cl)cc2)c1" in this assay. False

Answer briefly: the call reported for "Cc1cc2nc3c(C#N)c4c(c(-c5ccc(Cl)cc5)n3c2cc1C)CCC4" in this assay. False

Write down the call the test reported for this molecule. Item: "CNn1c(-c2ccccc2)n[nH]c1=O" False

How did this test come out for Nc1nc(O)c2ncn(C3C=CC(CO)C3)c2n1 (stereo not drawn) ? False

# lookup: test call for "CNC(=O)CCCNC(=O)CCCCC(=O)N(C)C" False

Look up the recorded call for "O=c1cccccc1NCCCCNc1cccccc1=O" in this test. False

Write down the call the test reported for this molecule. Item: "N#Cc1c(-c2ccccc2)c(/N=N/c2ccc(F)cc2)c(=O)n2c1[nH]c1ccccc12" True

Assay result, entry CC1CCP(=O)(c2ccccc2)CC1 (stereo not drawn) — outcome? False

What did this assay record as the result for "COc1c2c(cc3c1C(=O)Cc1ccc4c(c1CN(C)CC3)OCO4)OCO2" ? False

For "COc1ccc2c(CCNC(C)=O)c(C(C)=O)[nH]c2c1" , what call appears in the results of this test? False

Returns: the outcome recorded for "COC1=C(OC)C(=O)C(Cc2c(Cl)nc3n2CCS3)=C(C)C1=O" in this assay. False

So what was the verdict on "CCOC(=O)c1c(N2CCCC2)[nH]c(=O)c(C(c2ccco2)c2c(O)c(C(=O)OCC)c(N3CCCC3)[nH]c2=O)c1O" in this test? False

For Cc1ccc(S(N)(C(=O)Nc2cccc3ccccc23)[N+](=O)[O-])cc1 (stereo not drawn) , which call appears in the assay record? False

Please indicate how the test categorized "C=CCNC(=S)N/C=C(\C#N)C(N)=O" . False
